Molecular target: T1, Trop-2 on Trop-2 expressing tumor cells (human, UniProt P09758 27-323)
T1 construct: Endogenous Trop-2 of human tumour cell lines; also called Trop-2 positive tumor cells; A431 (Trop-2+++)
T1 sequence: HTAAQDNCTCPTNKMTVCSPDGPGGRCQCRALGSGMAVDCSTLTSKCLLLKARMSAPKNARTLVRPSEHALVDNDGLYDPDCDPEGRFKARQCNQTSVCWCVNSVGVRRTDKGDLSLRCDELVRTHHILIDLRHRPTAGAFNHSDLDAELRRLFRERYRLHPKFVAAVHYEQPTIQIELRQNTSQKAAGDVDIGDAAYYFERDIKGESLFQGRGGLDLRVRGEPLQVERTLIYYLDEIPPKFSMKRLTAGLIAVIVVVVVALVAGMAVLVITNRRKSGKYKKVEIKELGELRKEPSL
Experiment: flow cytometry, Colo205 cells (Trop-2+), 1 ug antibody per 300,000 cells
OUTCOME MEASURE: % positive (%)
Reply with just the number (in %).

• h7E6_SVG antibody (human IgG1) (antibody, V domains shown) VH: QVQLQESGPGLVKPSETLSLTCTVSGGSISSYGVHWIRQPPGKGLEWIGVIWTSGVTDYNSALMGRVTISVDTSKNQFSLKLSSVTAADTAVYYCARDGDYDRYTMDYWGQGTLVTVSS VL: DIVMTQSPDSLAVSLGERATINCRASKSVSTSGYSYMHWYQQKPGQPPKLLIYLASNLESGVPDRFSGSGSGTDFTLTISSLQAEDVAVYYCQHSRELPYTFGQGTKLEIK = 100

Looking up h7E6_WT antibody (human IgG1) (antibody, V domains shown, Human IgG1) VH: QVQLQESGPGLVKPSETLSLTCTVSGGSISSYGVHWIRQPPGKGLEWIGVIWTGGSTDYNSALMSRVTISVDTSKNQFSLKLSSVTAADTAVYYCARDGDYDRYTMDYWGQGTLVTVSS VL: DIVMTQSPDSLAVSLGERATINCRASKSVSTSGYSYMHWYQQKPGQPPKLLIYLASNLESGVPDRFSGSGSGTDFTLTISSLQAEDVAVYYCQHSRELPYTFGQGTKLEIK , I see its % positive listed as 99

Form field % positive, entry h7E6_L antibody (human IgG1) (antibody, V domains shown, Human IgG1) VH: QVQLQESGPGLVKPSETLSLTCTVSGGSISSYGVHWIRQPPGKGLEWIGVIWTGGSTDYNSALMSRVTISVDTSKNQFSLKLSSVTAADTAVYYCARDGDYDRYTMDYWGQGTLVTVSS VL: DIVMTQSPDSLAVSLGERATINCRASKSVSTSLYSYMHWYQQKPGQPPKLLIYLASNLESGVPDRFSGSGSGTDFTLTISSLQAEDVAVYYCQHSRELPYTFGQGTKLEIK : 100
